Taken from patent US20040058983A1.

System: HL cells
Experiment: Toxicity towards the host cells, Trypan blue staining, no infection
Type: cell-based, human
Settings: 0.05 μM
Each entry below carries its reported Toxicity test HL-C.
experimental endpoint: Toxicity test HL-C (%)

INSERT INTO results (compound, system_name, endpoint_result) VALUES
  ('COc1cc(O)c2c(=O)c(O)c(-c3ccc(O)c(O)c3)oc2c1 [Rhamnetin]', 'HL cells', 9.5),
  ('O=c1c(O)c(-c2ccc(O)cc2O)oc2cc(O)cc(O)c12 [Morin]', 'HL cells', 9.0),
  ('O=c1c(O)c(-c2ccc(O)c(O)c2)oc2cc(O)cc(O)c12 [Quercetin]', 'HL cells', 11.7),
  ('CCCCCCCCOC(=O)c1cc(O)c(O)c(O)c1 [Octyl gallate]', 'HL cells', 7.4);

* * *

Each entry below carries its reported Toxicity test HL-C (pre-treated).
Test system: HL cells
Test: Toxicity towards the host cells, Trypan blue staining, no infection
Assay type: cell-based, human
Conditions: 0.5 μM, pre-treated
Method: The determination was performed as in the previous tests but without any infection. The viability was determined with Trypan blue staining.
experimental endpoint: Toxicity test HL-C (pre-treated) (%)

INSERT INTO results (molecule, experimental_endpoint, endpoint_result) VALUES
  ('COc1cc(O)c2c(=O)c(O)c(-c3ccc(O)c(O)c3)oc2c1 [Rhamnetin]', 'Toxicity test HL-C (pre-treated)', 10.6),
  ('O=c1c(O)c(-c2ccc(O)cc2O)oc2cc(O)cc(O)c12 [Morin]', 'Toxicity test HL-C (pre-treated)', 6.4),
  ('CCCCCCCCOC(=O)c1cc(O)c(O)c(O)c1 [Octyl gallate]', 'Toxicity test HL-C (pre-treated)', 5.0),
  ('O=c1c(O)c(-c2ccc(O)c(O)c2)oc2cc(O)cc(O)c12 [Quercetin]', 'Toxicity test HL-C (pre-treated)', 3.3);

* * *

System: C. pneumoniae
Test: Direct anti-chlamydial effect of compounds and mixtures on C. pneumoniae (Example 5)
Format: cell-based
Conditions: Chlamydia pneumoniae; 50 μM; read-out: Inhibition %
Assign Fulfilled whenever inhibition at 50 µM does not fall below 40%; assign Not fulfilled whenever it does.

INSERT INTO results (compound, class_label) VALUES
  ('O=c1c(-c2ccc(O)cc2)coc2cc(O)cc(O)c12 [Genistein]', 'Fulfilled'),
  ('COC(=O)c1cc(O)c(O)c(O)c1 [Methyl gallate]', 'Fulfilled'),
  ('O=C1C[C@@H](c2ccc(O)cc2)Oc2cc(O)cc(O)c21 [Naringenin]', 'Not fulfilled'),
  ('O=c1c(-c2ccc(O)cc2)coc2cc(O[C@@H]3O[C@H](CO)[C@@H](O)[C@H](O)[C@H]3O)cc(O)c12 [Genistin]', 'Not fulfilled'),
  ('CC(=O)CC(c1ccccc1)c1c(O)c2ccccc2oc1=O (stereo not drawn) [3-(α-acetonylbenzyl)-4-hydroxycoumarin]', 'Not fulfilled'),
  ('O=c1cc(-c2ccccc2)oc2ccccc12 [Flavone]', 'Fulfilled'),
  ('CCCCCCCCOC(=O)c1cc(O)c(O)c(O)c1 [Octyl gallate]', 'Fulfilled'),
  ('Cc1c(-c2ccccc2)c(=O)oc2ccccc12 [4-methyl-3-phenylcoumarin]', 'Not fulfilled'),
  ('COc1cc(/C=C/C(=O)O)ccc1O [Ferulic acid]', 'Not fulfilled');

* * *

Each entry below carries its reported Toxicity test HL-C.
System: HL cells
Assay: Toxicity towards the host cells, Trypan blue staining, no infection
Type: cell-based, human
Conditions: 0.005 μM
experimental endpoint: Toxicity test HL-C

INSERT INTO measurements (compound, experimental_endpoint, endpoint_result) VALUES
  ('CCCCCCCCOC(=O)c1cc(O)c(O)c(O)c1 [Octyl gallate]', 'Toxicity test HL-C', '8.0%'),
  ('O=c1c(O)c(-c2ccc(O)cc2O)oc2cc(O)cc(O)c12', 'Toxicity test HL-C', '8.3%'),
  ('COc1cc(O)c2c(=O)c(O)c(-c3ccc(O)c(O)c3)oc2c1', 'Toxicity test HL-C', '10.9%'),
  ('O=c1c(O)c(-c2ccc(O)c(O)c2)oc2cc(O)cc(O)c12', 'Toxicity test HL-C', '7.4%');
